- Protocol Details: in vitro
- Measurement Context: mouse, cerebellar granule neurons
Recorded Metric: MCC at 72 h

Prompt: State its MCC at 72 h for this molecule: COC[C@H]1O[C@@H]2O[C@H]3[C@H](O)[C@@H](OC)[C@@H](O[C@H]4[C@H](O)[C@@H](OC)[C@@H](O[C@H]5[C@H](O)[C@@H](OC)[C@@H](O[C@H]6[C@H](O)[C@@H](OC)[C@@H](O[C@H]7[C@H](O)[C@@H](OC)[C@@H](O[C@H]8[C@H](O)[C@@H](OC)[C@@H](O[C@H]1[C@H](O)[C@H]2OC)O[C@@H]8COC)O[C@@H]7COC)O[C@@H]6COC)O[C@@H]5COC)O[C@@H]4COC)O[C@@H]3COC
Response: > 500 µM
